Value source: PubChem BioAssay

Test: E. coli acrAB mutant growth effects, primary screen, E. coli filamentation inducers, strain DRC39, OD650, 48 h (AID 1179);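 further: screen aims at cell division blockers that make cells filament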
Conditions: E. coli DRC39 delta-acrAB growth, higher = more signal, called active from +8 up or from −8 down
Reported z-score maps to class as: bucket 1: < -0.7; bucket 2: ≥ -0.7 and < -0.3; bucket 3: ≥ -0.3

Assign a category based on measured z-score for "Cc1ccc(S(=O)(=O)N[C@@H]2COC(=O)[C@@H](C)COC(=O)CC=C[C@H]2C)cc1" and give only the class name.
bucket 1

Input "CC(CCC(=O)OC[C@H]1O[C@H](C#Cc2ccccc2)C=C[C@@H]1Oc1ccc(C)cc1)=NO[C@H](C)c1cn([C@H](CO)Cc2ccccc2)nn1"
bucket 3

Input "CCCNC(=O)OC[C@H]1O[C@H](c2ccccc2)C=C[C@@H]1Oc1ccc(OC)cc1"
bucket 3

Input CC(=O)O[C@H]1C2=CO[C@H](C)[C@H]3[C@H]4C5=C([C@H](O)[C@H]6O[C@H]6C5=O)[C@H](OC4C)[C@@]23C(=O)[C@@H]2O[C@@H]21 (stereo partly specified)
bucket 3

Input "O=C1C2=CC[C@H]3C(=O)N(c4cccc(Oc5ccccc5)c4)C(=O)[C@H]3[C@H]2[C@H](O)[C@@H]2O[C@H]12"
bucket 3

Input "CO[C@H]1COC(=O)CC=C[C@H](C)[C@@H](OC)COC(=O)[C@@H](C)NC(=O)CC=C[C@@H]1C"
bucket 2

Input "CC(C)=NO[C@H](C)c1cn([C@H](CO)Cc2ccccc2)nn1"
bucket 1

Input "COc1cccc([C@H]2Oc3ccc(OC)cc3C(=NOC[C@@H](O)[C@H]3O[C@@H]4OC(C)(C)O[C@@H]4[C@H]3O)[C@@H]2O)c1"
bucket 3

Input "CON=C[C@@H](NS(=O)(=O)c1ccc(C)cc1)[C@H](C)C=CCC(=O)OC"
bucket 1

Input "COC(=O)CC=C[C@@H](C)[C@@H](C=NO[C@@H](C)c1cn([C@H](CO)Cc2ccccc2)nn1)OC"
bucket 1

Input "COC(=O)CC=C[C@@H](C)[C@@H](C=NO[C@@H]1O[C@H](COC(C)=O)[C@@H](OC(C)=O)[C@H](OC(C)=O)[C@H]1OC(C)=O)NS(=O)(=O)c1ccc(C)cc1"
bucket 2
